Source: patent US20240209076A1

I'd appreciate it if you could supply Kd values for the items below.
Biological target: T1, recombinant human IL-6 (human, UniProt P05231 30-212)
T1 construct: Flowed in solution over the captured antibodies
T1 sequence (P05231 30-212 limits assumed): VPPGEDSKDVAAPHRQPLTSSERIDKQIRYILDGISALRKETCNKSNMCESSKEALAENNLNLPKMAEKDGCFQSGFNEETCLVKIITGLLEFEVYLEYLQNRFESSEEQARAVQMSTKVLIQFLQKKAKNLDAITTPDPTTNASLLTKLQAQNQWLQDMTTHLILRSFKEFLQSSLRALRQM
Assay: SPR (Biacore), supernatant IgG on Protein A, 25 C
# value in nM; strip the unit string

-- ask I am curious: what Kd value has been reported for anti-IL-6 antibody, heavy chain F27V, light chain WT (antibody, IgG1, V domains shown, Full IgG1 tested; V domains derived as in m2) VH: EVQLVESGGGLVQPGGSLRLSCAASGVTFSPFAMSWVRQAPGKGLEWVAKISPGGSWTYYSDTVTGRFTFSLDTSKSTAYLQMNSLRAEDTAVYYCARQLWGYYALDIWGQGTLVTVSS VL: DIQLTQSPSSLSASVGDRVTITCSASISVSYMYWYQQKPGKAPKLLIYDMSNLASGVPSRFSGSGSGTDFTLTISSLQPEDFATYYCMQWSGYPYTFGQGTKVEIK ?
-- reply 0.442

-- ask # lookup: Kd of anti-IL-6 antibody, heavy chain A97V, light chain WT (antibody, IgG1, V domains shown, Full IgG1 tested; V domains derived as in m2) VH: EVQLVESGGGLVQPGGSLRLSCAASGFTFSPFAMSWVRQAPGKGLEWVAKISPGGSWTYYSDTVTGRFTFSLDTSKSTAYLQMNSLRAEDTAVYYCVRQLWGYYALDIWGQGTLVTVSS VL: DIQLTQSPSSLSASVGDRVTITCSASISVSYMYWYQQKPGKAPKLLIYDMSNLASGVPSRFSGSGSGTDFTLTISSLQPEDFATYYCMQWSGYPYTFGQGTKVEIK
-- reply 0.574

-- ask Entry under review: anti-IL-6 antibody, heavy chain I108E, light chain WT (antibody, IgG1, V domains shown, Full IgG1 tested; V domains derived as in m2) VH: EVQLVESGGGLVQPGGSLRLSCAASGFTFSPFAMSWVRQAPGKGLEWVAKISPGGSWTYYSDTVTGRFTFSLDTSKSTAYLQMNSLRAEDTAVYYCARQLWGYYALDEWGQGTLVTVSS VL: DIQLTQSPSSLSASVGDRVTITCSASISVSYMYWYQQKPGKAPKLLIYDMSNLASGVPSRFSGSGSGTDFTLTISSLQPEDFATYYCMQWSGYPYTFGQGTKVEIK . Reported Kd?
-- reply 0.305

-- ask Look up Kd: anti-IL-6 antibody, heavy chain WT, light chain I27L (antibody, IgG1, V domains shown, Full IgG1 tested; V domains derived as in m2) VH: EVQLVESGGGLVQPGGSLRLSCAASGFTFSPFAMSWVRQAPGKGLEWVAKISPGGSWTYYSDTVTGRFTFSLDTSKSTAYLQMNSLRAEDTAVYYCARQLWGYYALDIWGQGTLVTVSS VL: DIQLTQSPSSLSASVGDRVTITCSASLSVSYMYWYQQKPGKAPKLLIYDMSNLASGVPSRFSGSGSGTDFTLTISSLQPEDFATYYCMQWSGYPYTFGQGTKVEIK
-- reply 0.332

-- ask Consider the binder shown here: anti-IL-6 antibody, heavy chain D62F, light chain WT (antibody, IgG1, V domains shown, Full IgG1 tested; V domains derived as in m2) VH: EVQLVESGGGLVQPGGSLRLSCAASGFTFSPFAMSWVRQAPGKGLEWVAKISPGGSWTYYSFTVTGRFTFSLDTSKSTAYLQMNSLRAEDTAVYYCARQLWGYYALDIWGQGTLVTVSS VL: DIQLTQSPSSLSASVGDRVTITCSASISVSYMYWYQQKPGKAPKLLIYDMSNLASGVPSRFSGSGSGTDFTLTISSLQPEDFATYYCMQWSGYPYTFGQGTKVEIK What is its recorded Kd?
-- reply 0.35

-- ask Tell me the measured Kd of anti-IL-6 antibody, heavy chain S30G, light chain WT (antibody, IgG1, V domains shown, Full IgG1 tested; V domains derived as in m2; also called S30G (heavy chain)) VH: EVQLVESGGGLVQPGGSLRLSCAASGFTFGPFAMSWVRQAPGKGLEWVAKISPGGSWTYYSDTVTGRFTFSLDTSKSTAYLQMNSLRAEDTAVYYCARQLWGYYALDIWGQGTLVTVSS VL: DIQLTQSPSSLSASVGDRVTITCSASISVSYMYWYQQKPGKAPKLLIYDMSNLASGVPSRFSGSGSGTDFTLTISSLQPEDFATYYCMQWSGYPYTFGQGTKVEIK , please.
-- reply 0.333

-- ask # Kd lookup, item anti-IL-6 antibody, heavy chain G26R, light chain WT (antibody, IgG1, V domains shown, Full IgG1 tested; V domains derived as in m2) VH: EVQLVESGGGLVQPGGSLRLSCAASRFTFSPFAMSWVRQAPGKGLEWVAKISPGGSWTYYSDTVTGRFTFSLDTSKSTAYLQMNSLRAEDTAVYYCARQLWGYYALDIWGQGTLVTVSS VL: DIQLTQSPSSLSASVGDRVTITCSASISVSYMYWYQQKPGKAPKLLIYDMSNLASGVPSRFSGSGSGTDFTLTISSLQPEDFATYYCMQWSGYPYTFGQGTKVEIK
-- reply 0.302

-- ask Request the reported Kd associated with anti-IL-6 antibody, heavy chain S61R, light chain WT (antibody, IgG1, V domains shown, Full IgG1 tested; V domains derived as in m2) VH: EVQLVESGGGLVQPGGSLRLSCAASGFTFSPFAMSWVRQAPGKGLEWVAKISPGGSWTYYRDTVTGRFTFSLDTSKSTAYLQMNSLRAEDTAVYYCARQLWGYYALDIWGQGTLVTVSS VL: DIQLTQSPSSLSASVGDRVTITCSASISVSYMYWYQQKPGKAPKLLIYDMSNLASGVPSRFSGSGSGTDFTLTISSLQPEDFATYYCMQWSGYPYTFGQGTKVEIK
-- reply 0.467

-- ask Can you look up the measured Kd of anti-IL-6 antibody, heavy chain T63G, light chain WT (antibody, IgG1, V domains shown, Full IgG1 tested; V domains derived as in m2) VH: EVQLVESGGGLVQPGGSLRLSCAASGFTFSPFAMSWVRQAPGKGLEWVAKISPGGSWTYYSDGVTGRFTFSLDTSKSTAYLQMNSLRAEDTAVYYCARQLWGYYALDIWGQGTLVTVSS VL: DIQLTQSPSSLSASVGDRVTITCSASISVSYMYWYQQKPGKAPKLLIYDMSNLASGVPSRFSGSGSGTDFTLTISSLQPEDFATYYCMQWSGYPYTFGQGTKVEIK for me?
-- reply 0.404

-- ask Any idea what its Kd is? The binder is anti-IL-6 antibody, heavy chain WT, light chain A25T (antibody, IgG1, V domains shown, Full IgG1 tested; V domains derived as in m2) VH: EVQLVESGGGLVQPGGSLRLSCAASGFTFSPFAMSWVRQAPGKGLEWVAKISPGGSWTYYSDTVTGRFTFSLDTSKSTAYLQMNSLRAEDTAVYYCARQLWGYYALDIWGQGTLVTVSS VL: DIQLTQSPSSLSASVGDRVTITCSTSISVSYMYWYQQKPGKAPKLLIYDMSNLASGVPSRFSGSGSGTDFTLTISSLQPEDFATYYCMQWSGYPYTFGQGTKVEIK
-- reply 0.235
